Experimental endpoint: melting point

Previously resolved entries follow.
CCOC(=O)C1=C(C)N/C(=C/c2cc(C)n(C3CCN(Cc4ccc(N5CCOCC5)cc4)CC3)c2C)C1=O [Compound 54] ... > 280 °C
CCOC(=O)C1=C(C)N/C(=C/c2cc(C)n(C3CCN(CC4CCOCC4)CC3)c2C)C1=O [Compound 41] ... 180 to 183 °C
Cc1cc(/C=C2/Nc3ccn(Cc4ccncc4)c(=O)c3C2=O)c(C)n1-c1ccccc1C(F)(F)F [Compound 64] ... 215 to 240 °C
CCOC(=O)C1=C(C)N/C(=C/c2cc(C)n(C3CCN(C)CC3)c2C)C1=O [Compound 19] ... 130 to 135 °C
Cc1cc(/C=C2/Nc3ccn(Cc4ccccc4)c(=O)c3C2=O)c(C)n1-c1ccccc1C(F)(F)F [Compound 62] ... 195 to 200 °C
CCOC(=O)C1=C(C)N/C(=C/c2cc(C)n(C3CCN(CC4CC4)CC3)c2C)C1=O [Compound 39] ... 142 to 146 °C

Hey, quick one: what's melting point for each of these?
1. CCOC(=O)C1=C(C)N/C(=C/c2cc(C)n(C3CCN(c4ccc(C(F)(F)F)cc4)CC3)c2C)C1=O [Compound 30]
2. CCOC(=O)C1=C(C)N/C(=C/c2cc(C)n(C3CCN(Cc4nccn4C)CC3)c2C)C1=O [Compound 49]
3. CCCn1ccc2c(c1=O)C(=O)/C(=C\c1cc(C)n(-c3ccccc3C(F)(F)F)c1C)N2 [Compound 59]
4. CCOC(=O)C1=C(C)N/C(=C/c2cc(C)n(C3CCN(Cc4ccn(C)n4)CC3)c2C)C1=O [Compound 45]
5. CCOC(=O)C1=C(C)N/C(=C/c2cc(C)n(C3CCN(CC)CC3)c2C)C1=O [Compound 20]

Output line:
["153 to 158 °C", "186 to 189 °C", "180 to 185 °C", "180 to 184 °C", "140 to 145 °C"]

====

For each of the compounds below, state its EC50.
- Test system: L6 cells
- Assay remarks: In vitro cytotoxicity assay in L6 cells (Alamar Blue)
- Format: cell-based
- Experimental setup: Rattus norvegicus; Table 1, A-ring variants; mammalian L6 cells; mean of two independent assays; read-out: EC50 L6 cells
One number for each entry, in µM.

Previously resolved entries follow.
CCOC(=O)C1=C(C)N/C(=C/c2cc(C)n(C3CCN(Cc4ncc[nH]4)CC3)c2C)C1=O [Compound 46] ... 28
CCOC(=O)C1=C(C)N/C(=C/c2cc(C)n(C3CCN(CCc4ccc(F)cc4)CC3)c2C)C1=O [Compound 34] ... 22
CCOC(=O)C1=C(C)N/C(=C/c2cc(C)n(C3CCN(CCc4ccc(OC)cc4)CC3)c2C)C1=O [Compound 32] ... 72

Input line: Specify EC50 for CCOC(=O)C1=C(C)N/C(=C/c2cc(C)n(C3CCN(CCc4ccccc4)CC3)c2C)C1=O [Compound 31] and stop.
Output line: 107

====

- System: Plasmodium falciparum K1
- Assay remarks: microbe, parasite or virus in culture
- Type: cell-based
- Experimental setup: Plasmodium falciparum, K1, read-out: EC50 P. falc.
For each of the compounds below, state its EC50.
Give bare numbers, in nM.

CCOC(=O)C1=C(/C=C/N(C)C)N/C(=C/c2cc(C)n(-c3ccccc3C(F)(F)F)c2C)C1=O ... 61
CCOC(=O)C1=C(C)N/C(=C/c2cc(C)n(C3CCN(C(C)c4ccccc4C(F)(F)F)CC3)c2C)C1=O (stereo not shown) ... 1
CCOC(=O)C1=C(C)N/C(=C/c2cc(C)n(C3CCN(Cc4ccc(N5CCOCC5)cc4)CC3)c2C)C1=O ... 2600

Hey, quick one: what's EC50 for each of these?
1. CCn1ccc2c(c1=O)C(=O)/C(=C\c1cc(C)n(-c3ccccc3C(F)(F)F)c1C)N2
2. CCOC(=O)C1=C(C)N/C(=C/c2cc(C)n(C3CCN(Cc4ccc(-c5noc(C)n5)cc4)CC3)c2C)C1=O
3. CCOC(=O)C1=C(C)N/C(=C/c2cc(C)n(C3CCN(Cc4ccccc4)CC3)c2C)C1=O
4. Cc1cc(/C=C2/Nc3cc[nH]c(=O)c3C2=O)c(C)n1-c1ccccc1C(F)(F)F

Output line:
1. 21
2. 1
3. 35
4. 47

Values from paper PMC3963473
